# Test system: SW-620 colon
# Assay: NCI tumour cell line growth inhibition, 48 h; in the data active = GI50 below about 0.43 µM; inactive = the rest
Response enum: active, inactive

COc1ccc2c(c1)C(=O)c1c-2n(CCCN=[N+]=[N-])c(=O)c2cc(OC)c(OC)cc12 : inactive
Fc1ccc2[nH]cc(-c3nonc3-c3c[nH]c4ccc(Br)cc34)c2c1 : inactive
COc1cc(/C=C2\C(=O)Nc3cc(C)c(O)cc32)cc(OC)c1OC : inactive
O=S(=O)(Nc1ccccc1Cl)c1ccc(-c2cnc(C3CC3)o2)cc1 : active
COc1ccc(-c2cn[nH]c2-c2cc(OC)c3c(c2)OCO3)cc1 : active

Data request: Could you kindly confirm the outcome this assay logged for `CCOC(=O)c1sc(-c2ccc(OS(=O)(=O)c3ccc(Br)s3)c(C=O)c2)nc1C` ?
Data returned: inactive

Data request: Could you kindly confirm the outcome this assay logged for `CN[C@H]1C=C[C@@H]2/C=C(C)/C=C/[C@@H](C)[C@H]([C@H](C)[C@H](O)[C@@H](C)NC(C)=O)OC(=O)/C=C/C=C(C)\C=C\[C@]2(C)C1` ?
Data returned: active

Data request: Could you kindly confirm the outcome this assay logged for `COc1cccc(-c2nc3sccn3c2-c2ccnc(NCCCNS(=O)(=O)c3cccc(F)c3)c2)c1` ?
Data returned: inactive

Data request: Could you kindly confirm the outcome this assay logged for `CNC(=O)c1ccc(N2CCN(Cc3ccc4nc(C)c(=O)[nH]c4c3F)CC2)c(F)n1` ?
Data returned: inactive

Data request: Could you kindly confirm the outcome this assay logged for `COc1ccc(C(=O)/C=C/c2ccc(C)cc2)cc1OC` ?
Data returned: inactive

Data request: Could you kindly confirm the outcome this assay logged for `Cc1nc(SCC(=O)Nc2nc(-c3ccc(Cl)cc3)cs2)n(Nc2ccccc2)c1C` ?
Data returned: inactive

---

# Tested on: UO-31 renal
# Assay: NCI tumour cell line growth inhibition, 48 h
Where a SMILES comes first, the peptide text is derived from it. The star is where a group is joined. Boc = CC(C)(C)OC(=O)*; OSu = O=C1CCC(=O)N1O*
Measured Quantity: TGI

O=C(Nc1cccc(-n2ccc3c(NC(=O)c4ccccc4)nccc32)c1)Nc1cc(C(F)(F)F)cc(C(F)(F)F)c1 : > 50 µM
CC(C)/C(Cl)=N\OC(=O)Nc1ccccc1F : 29.6 µM
CN(C)CC(C)(C)C(=O)/C=C/c1ccc(/C=C/C(=O)C(C)(C)CN(C)C)cc1 : 3.49 µM

API: the following record is the query input.
Data request: Any idea what its TGI is? The compound is CC(NC(=O)C(NC(=O)OC(C)(C)C)C(C)C)C(=O)NCC(=O)ON1C(=O)CCC1=O (stereo not drawn) (Boc-Val-Ala-Gly-OSu; configuration not given here)
Data returned: > 100 µM

---

# Test system: UO-31 renal
# Assay: NCI tumour cell line growth inhibition, 48 h
// reported TGI per item

Examples from the recorded data:
Cc1ccc(S(=O)(=O)N/N=C(\c2nc3ccc(Cl)cc3[nH]c2=O)C(O)c2cccc([N+](=O)[O-])c2)cc1 (stereo not given) : > 100 µM
CC1=Nc2nc(Cl)cn2C(=O)C1(Cl)Cl : > 10 µM
COc1cc([C@@H]2c3cc4c(cc3C(N)C3COC(=O)[C@@H]32)OCO4)cc(OC)c1O (stereo not given in full) : > 100 µM
Cc1cccc2c(=O)c([Se]c3coc4c(C)cccc4c3=O)coc12 : 28.7 µM

Data request: Provide the documented TGI with UO-31 renal as the system for NC(CCCC(N)P(=O)(O)c1ccccc1)P(=O)(O)c1ccccc1 (stereo not given)
Data returned: > 261 µM

Data request: Provide the documented TGI with UO-31 renal as the system for `Cc1cc2c(ccc3c(C)cc(=O)oc32)o1`
Data returned: > 100 µM

Data request: Provide the documented TGI with UO-31 renal as the system for `CC(=O)OCCCOCn1c(Cc2ccccc2)c(C)c(=O)[nH]c1=O`
Data returned: > 100 µM

Data request: Provide the documented TGI with UO-31 renal as the system for `Oc1ccc(-c2nc(-c3cccnc3)c(-c3ccc(Cl)cc3)[nH]2)cc1O`
Data returned: 26.8 µM

Data request: Provide the documented TGI with UO-31 renal as the system for Nc1ccccc1C(=O)CC1OC(=O)c2ccccc21 (stereo not given)
Data returned: > 100 µM

Data request: Provide the documented TGI with UO-31 renal as the system for `COc1ccc(OC)c(/C(C)=N/NC(N)=S)c1`
Data returned: > 100 µM

Data request: Provide the documented TGI with UO-31 renal as the system for `N/C(=N\S(=O)(=O)c1ccc(S(=O)(=O)c2ccccc2)s1)Nc1ccc(Cl)cc1`
Data returned: 40 µM

---

// reported TGI per item
# Test system: MDA-MB-231 breast
# Assay: NCI tumour cell line growth inhibition, 48 h
Where a SMILES comes first, the peptide text is derived from it. The star is where a group is joined. Boc = CC(C)(C)OC(=O)*; OSu = O=C1CCC(=O)N1O*

Examples from the recorded data:
CC(=O)N=C1N(/C=C2\C(=O)Oc3ccccc3C2=O)C(=O)/C(=C/c2ccc(OC(C)=O)cc2)N1C : > 100 µM
CC(NC(=O)C(NC(=O)OC(C)(C)C)C(C)C)C(=O)NCC(=O)ON1C(=O)CCC1=O (stereo not drawn) (Boc-Val-Ala-Gly-OSu; configuration not given here) : > 100 µM
COc1ccc(-c2cn[nH]c2-c2cc(OC)c3c(c2)OCO3)cc1 : 8.35 µM

API: the following record is the query input.
Data request: Provide the documented TGI with MDA-MB-231 breast as the system for `O=S(=O)(c1ccccc1)n1c2ccc(Br)cc2c2nc3ccccc3nc21`
Data returned: > 100 µM

---

# Test system: NCI-H23 lung
# Assay: NCI tumour cell line growth inhibition, 48 h
// reported TGI per item
Answer format: numeric, µM implied, no suffix.

C[N-]c1nnnn1C.[Au+].c1ccc([PH+](c2ccccc2)c2ccccc2)cc1 : 4.48
Fc1ccc2[nH]cc(-c3nonc3-c3c[nH]c4ccc(Br)cc34)c2c1 : 5.86

Data request: Any idea what its TGI is? The compound is `Cc1nc(Nc2ccc(Cl)cc2)sc1C(=O)NNc1ccc([N+](=O)[O-])cc1[N+](=O)[O-]`
Data returned: 35.1

---

# System: SK-MEL-5 melanoma
# Assay: NCI tumour cell line growth inhibition, 48 h
Measured Quantity: TGI (µM)
Answer format: numeric, µM implied, no suffix.

Examples from the recorded data:
CCCCCC[N+](C)(C)Cc1ccc(C[N+](C)(C)CCCCCC)cc1 : 28.5
COc1cc(-c2cc3ncccc3c3nc(N)c4cccnc4c23)cc(OC)c1OC : 1.99

Data request: Provide the documented TGI with SK-MEL-5 melanoma as the system for `Clc1nc(Cl)c2ncn(Cc3cccc(Cn4cnc5c(Cl)nc(Cl)nc54)c3)c2n1`
Data returned: 5.87

Data request: Provide the documented TGI with SK-MEL-5 melanoma as the system for `COC(=O)CCc1c[nH]c2ccc(N(CCCl)CCCl)cc12`
Data returned: 14.8

---

// reported TGI per item
# System: A498 renal
# Assay: NCI tumour cell line growth inhibition, 48 h
Answer format: numeric, µM implied, no suffix.

COc1cc(OC)cc(N(CCNC(C)C)c2ccc3ncc(-c4cnn(C)c4)nc3c2)c1 : 3.5
COc1cc(C#Cc2ccc(=O)oc2C#Cc2ccccc2)cc(OC)c1OC : 34.5
Nc1ccc(C2=NN(c3ccccc3)C(c3ccc(Cl)cc3)C2)cc1 (centres undefined) : 13
COC(=O)c1c(O)ccc2c1c1c(n2Cc2ccccc2Cl)C(=O)c2ccccc2C1=O : 31.3
O=C(/C=C/c1ccc(O)c(O)c1)OCCCc1ccccc1 : 30.4
[Cl][Hg][Cl] : 34.7

API: the following record is the query input.
Data request: Any idea what its TGI is? The compound is `CC(=O)[CH-]C(C)=O.CC(=O)[CH-]C(C)=O.[CH2-]CCC.[CH2-]CCC.[Sn+4]`
Data returned: 0.73

---

# System: A498 renal
# Assay: NCI tumour cell line growth inhibition, 48 h
Measured Quantity: TGI

c1cc(N(CCn2cccn2)CCn2cccn2)cc(N(CCn2cccn2)CCn2cccn2)c1 : > 100 µM
COC(=O)c1c2c(c[n+]([O-])c1C)C(=O)C=CC2=O : 26.4 µM
Cc1ccc(-c2csc(/N=C3\C(=O)Nc4ccccc43)n2)cc1 : 3.53 µM
C=C(COC(C)=O)CC(OC(C)=O)c1ccccc1 (stereo unspecified) : > 100 µM
O=[N+]([O-])C1CC/C(=N/O)c2nonc21 (stereo unspecified) : > 10 µM

API: the following record is the query input.
Data request: Any idea what its TGI is? The compound is O=C(CP(=O)(O)O)NC(CC(=O)OCc1ccccc1)C(=O)OCc1ccccc1 (stereo unspecified)
Data returned: > 100 µM

---

# Test system: MDA-MB-231 breast
# Assay: NCI tumour cell line growth inhibition, 48 h
Where a SMILES comes first, the peptide text is derived from it. The star is where a group is joined. Boc = CC(C)(C)OC(=O)*
Measured Quantity: TGI

Examples from the recorded data:
COC(=O)C(Cc1c[nH]c2ccccc12)NC(=O)C(Cc1c[nH]c2ccccc12)NC(=O)C(Cc1c[nH]c2ccccc12)NC(=O)C(Cc1c[nH]c2ccccc12)NC(=O)C(Cc1c[nH]c2ccccc12)NC(=O)C(Cc1c[nH]c2ccccc12)NC(=O)OC(C)(C)C (stereo not drawn) (Boc-WWWWWW-OMe; configuration not given here) : > 100 µM
COC(=O)/C(=C\Nc1cccc(C)n1)S(=O)(=O)c1ccc(C)cc1 : > 100 µM

Data request: Any idea what its TGI is? The compound is `CC(C)CCC(=O)c1ccoc1`
Data returned: > 100 µM
